For each record, write down the corresponding IC50.
- experimental_target: CDK4-NanoLuc fusion with CCND1 in 293T or 293 cells (Homo sapiens, UniProt P11802)
- Construct: host or cells: 293T (ATCC CRL-3216) or 293 (ATCC CRL-1573)
- Sequence (P11802 whole entry, the tested form may be a part): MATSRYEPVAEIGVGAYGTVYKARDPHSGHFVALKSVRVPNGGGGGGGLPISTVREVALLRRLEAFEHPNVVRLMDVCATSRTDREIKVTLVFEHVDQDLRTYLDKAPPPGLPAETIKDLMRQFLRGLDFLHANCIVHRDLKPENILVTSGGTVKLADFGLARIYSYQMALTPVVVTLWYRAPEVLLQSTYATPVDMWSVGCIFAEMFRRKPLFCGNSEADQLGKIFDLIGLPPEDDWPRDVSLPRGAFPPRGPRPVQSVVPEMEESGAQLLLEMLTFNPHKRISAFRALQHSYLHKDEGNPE
- Sequence (P24385 whole entry partner, the tested form may be a part): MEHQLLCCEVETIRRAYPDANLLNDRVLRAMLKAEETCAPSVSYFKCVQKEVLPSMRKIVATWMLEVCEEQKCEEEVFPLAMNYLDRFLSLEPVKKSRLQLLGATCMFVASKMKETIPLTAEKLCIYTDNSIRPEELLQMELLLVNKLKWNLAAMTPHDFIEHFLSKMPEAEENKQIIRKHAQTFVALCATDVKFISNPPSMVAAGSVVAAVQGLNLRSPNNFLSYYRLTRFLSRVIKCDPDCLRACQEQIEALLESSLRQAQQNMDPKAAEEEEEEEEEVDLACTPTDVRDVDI
- assay_comment: NanoBRET Target Engagement (TE) Intracellular Kinase Assay, CDK4/CCND1
- Type: cell-based
- test_parameters: NanoBRET TE intracellular kinase assay, 2-hour incubation, read-out: NanoBRET-CDK4/D1 IC50
Answers are plain numbers, in µM.

Reference set, count: 5
> print(dat)
                                   compound  reading
1  COc1cc(O)c(C=O)c(OCC(=O)Nc2cc([C@H]3CC[C@@H](OC(=O)NCC#N)C3)[nH]n2)c1 [Compound 127]     8.53
2  COc1cc(O)c(C=O)c(OCC(=O)Nc2cc([C@H]3CC[C@@H](OC(=O)NC(C)(C)C)C3)[nH]n2)c1 [Compound 128]    0.961
3  COc1cc(O)c(C=O)c(OCC(=O)Nc2cc([C@H]3CC[C@@H](OC(=O)NC4(C)CC4(F)F)C3)[nH]n2)c1 (single isomer, unassigned) [Compound 280]    0.576
4  CC(C)NC(=O)O[C@@H]1CC[C@H](c2cc(Nc3cc(COc4cccc(O)c4C=O)ccn3)n[nH]2)C1 [Compound 24]     4.88
5  COc1cc(O)c(C=O)c(OCC(=O)Nc2cc([C@H]3CC[C@@H](OC(=O)N[C@@H](C)CC(F)(F)F)C3)[nH]n2)c1 [Compound 167]    0.828

List reported IC50 for each of these compounds:
1. COc1cc(O)c(C=O)c(OCC(=O)Nc2cc([C@H]3CC[C@@H](OC(=O)NC4(CF)CC4)C3)[nH]n2)c1 [Compound 136]
2. COc1cccc(-c2cc(C(=O)Nc3cc([C@H]4CC[C@@H](OC(=O)NC(C)C)C4)[nH]n3)n(C)n2)c1C=O [Compound 106]

**A:**
1.42
3.33

**Q:** State its IC50 for this compound: COc1cc(O)c(C=O)c(OCC(=O)Nc2cc([C@H]3CC[C@@H](OC(=O)N4CC(F)(F)C4)C3)[nH]n2)c1 [Compound 129]
**A:** 7.62
